- System: RAF1;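 also: KINOMEscan kinase panel screen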
- SETTINGS: concentration: 1 μM, replicates: in singlicate; n = 1
Label t when %Inh < 20%; otherwise f.

{"COMPOUND": "CS(=O)(=O)CCNCc1nc(-c2ccc3ncnc(Nc4ccc5c(cnn5Cc5ccccc5)c4)c3c2)cs1.Cl.Cl [GW569716]", "TESTED TARGET": "RAF1", "LABEL": "t"}
{"COMPOUND": "COc1ccc2cc(-c3nc(-c4ccccc4C(C)C)[nH]c3-c3ccncc3)ccc2c1 [SB-660566]", "TESTED TARGET": "RAF1", "LABEL": "f"}
{"COMPOUND": "Fc1ccc(-c2nc[nH]c2-c2ccncc2)cc1 [SB-217360]", "TESTED TARGET": "RAF1", "LABEL": "t"}
{"COMPOUND": "CCCCc1nn2ncccc2c1-c1ccnc(NC2CC2)n1 [GW684374]", "TESTED TARGET": "RAF1", "LABEL": "t"}

# TODO verify %Inh < 20% strictly for this compound: CN1c2ccc(-c3ccc(C(N)=O)cc3)cc2-c2[nH]ncc2S1(=O)=O
t

# TODO verify %Inh < 20% strictly for this compound: COc1cccc(NC(=O)Nc2ccc(C)c(-c3ccc(C(=O)Nc4ccncc4)cc3)c2)c1 [GSK1398474]
f
